# Test system: OVCAR-3 ovarian
# test: NCI tumour cell line growth inhibition, 48 h
Assign TGI to each entry below.
All answers are understood in µM, so give the number only.

**Query** Read off the recorded TGI for C=C1C(=O)O[C@H]2[C@@H](O)[C@H](C)CCC/C(C)=C/CC[C@@]3(C)O[C@@H]3C[C@@H]12
**Result** 31.1

**Query** For NC(=O)CN1CCN(c2nc(N3CCCC3)c3nc(Cl)c(NCc4ccccc4)nc3n2)CC1 , write its TGI.
**Result** 16.3

====

For each record, write down the corresponding TGI.
# Test system: COLO 205 colon
# test: NCI tumour cell line growth inhibition, 48 h

**Query** Consider the compound C(=C1/CCCCC([n+]2ccccc2)=N1)/c1ccccc1 . State its measured TGI.
**Result** > 100 µM

**Query** Give the reported value of TGI for this record: Cn1c(=O)c2[nH]cnc2n(C)c1=O
**Result** > 100 µM

**Query** Please list TGI recorded for the compound NC(=O)Cn1c(=O)[nH]c(=O)c2[nH]cnc21
**Result** > 100 µM

**Query** Return TGI (reported value) for this compound: COc1cc(/C=C2\N=C(c3ccccc3)N(c3ccc(C(=O)c4ccccc4)cc3N3C(=O)/C(=C/c4cc(OC)c(OC)c(OC)c4)N=C3c3ccccc3)C2=O)cc(OC)c1OC
**Result** 30 µM

**Query** Name the recorded TGI of the item C[C@@H]1CC2(N=CCS2)[C@]2(O)O[C@@H]3C[C@@]4(C)[C@H](C[C@H]3O[C@@H]2O1)C[C@H]1O[C@]12[C@@H]4[C@H](O)C(=O)[C@]1(C)C(C3=CC(=O)OC3)CC[C@]21O (some centres not stated) in your answer.
**Result** 0.0828 µM

**Query** Query TGI for CCCNC(=O)Cn1c(-c2ccccc2)cc2ccccc21
**Result** > 100 µM

**Query** Answer with reported TGI of OCC(CO)CC1COc2ccccc2O1 (configuration not stated)
**Result** > 10 µM

**Query** // Input: CC[N+]1(C)CCC(O)(/C=C/c2ccc(Cl)c(Cl)c2)C(C(=O)/C=C/c2ccc(Cl)c(Cl)c2)C1 (configuration not stated) . Output its TGI only.
**Result** 10.2 µM

**Query** Look up and state reported TGI for NC(=O)c1ccc(-c2c3ccccc3cc3c2ccc2ccccc23)cc1
**Result** 36.5 µM

**Query** Kindly indicate its recorded TGI. Item: C[N+](C)(C)c1nc(N)nc2c1ncn2C1OC(CO)C(O)C1O (configuration not stated)
**Result** > 100 µM

**Query** Supply reported TGI belonging to this compound: C[C@@H](CC(O)C(O)C(C)(C)O)C1CCC23CC12CCC1[C@@]2(C)CCC(=O)C(C)(C)C2CC(OC2OC(CO)C(O)C(O)C2O)[C@]13C (some centres not stated)
**Result** > 10 µM

**Query** Give TGI for the following compound: CNc1ccc([N+](=O)[O-])cc1C(=O)N1CCC[C@H]1CO
**Result** > 100 µM

Entry source: PubChem BioAssay (NCI)
